Molecular target: human GPR84 receptor (Homo sapiens)
Construct: frozen aliquots prepared by acCELLerate
Sequence (Q9NQS5 whole entry): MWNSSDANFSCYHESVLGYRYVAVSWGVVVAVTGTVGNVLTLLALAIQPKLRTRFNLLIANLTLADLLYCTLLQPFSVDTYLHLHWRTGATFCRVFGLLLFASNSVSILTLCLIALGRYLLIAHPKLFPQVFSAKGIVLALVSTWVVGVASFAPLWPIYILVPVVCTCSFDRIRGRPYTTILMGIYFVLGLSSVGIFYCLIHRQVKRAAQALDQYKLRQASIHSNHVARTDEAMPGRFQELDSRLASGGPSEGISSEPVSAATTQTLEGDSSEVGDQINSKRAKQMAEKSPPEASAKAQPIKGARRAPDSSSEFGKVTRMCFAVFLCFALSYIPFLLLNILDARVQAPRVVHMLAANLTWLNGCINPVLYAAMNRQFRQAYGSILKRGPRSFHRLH
Assay: cAMP HTRF assay for identification of cellular GPR84 antagonists
Conditions: CHO-K1 cells stably expressing human GPR84; Forskolin + agonist 6-OAU (EC80); average or median values
measured-metric: IC50 (nM)
Report the value in nM with no unit label.

*Q* Please report the measured IC50 for `Cc1c(C(=O)NC[C@@H]2CCCO2)oc2c1-c1nn(C(=O)N(C)C)cc1C1(CC1)C2` tested on human GPR84 receptor (Homo sapiens).
*A* 240

*Q* Check human GPR84 receptor (Homo sapiens) data and give IC50 for Cc1c(C(=O)NCC2CCC(C)O2)oc2c1-c1nn(Cc3ccccn3)cc1CC2 (mixture of isomers) .
*A* 118

*Q* Print human GPR84 receptor (Homo sapiens) IC50 for CC1(C)CC[C@H](CNC(=O)c2oc3c(c2C(F)(F)F)-c2nn(C[C@H]4COCCO4)cc2CC3)O1 (single isomer, unassigned) [Example 223-2] .
*A* 51

*Q* Write down the reported IC50 (system: human GPR84 receptor (Homo sapiens)) of `Cc1c(C(=O)NCc2cc[nH]n2)oc2c1-c1nn(Cc3ccccn3)cc1CC2`
*A* 340

*Q* Under human GPR84 receptor (Homo sapiens): report IC50 of `Cc1c(C(=O)NC[C@H]2COCCO2)oc2c1-c1nn(Cc3ccccn3)cc1C1(CCC1)C2` .
*A* 940

*Q* State the measured IC50 (human GPR84 receptor (Homo sapiens)) of `Cc1ccc(Cn2cc3c(n2)-c2c(oc(C(=O)NC[C@@H]4CCCO4)c2C)CC3)c(C)n1`
*A* 170

*Q* Report its IC50 with human GPR84 receptor (Homo sapiens) as the test system: `CCOc1cnc(Cn2cc3c(n2)-c2c(oc(C(=O)NC[C@@H]4CCCO4)c2C)CC3)c(Cl)c1`
*A* 70

*Q* Name the value of IC50 reported for `Cn1ccc(CNC(=O)c2oc3c(c2C(F)(F)F)-c2nn(Cc4ccccn4)cc2C2(CCC2)C3)n1` when tested on human GPR84 receptor (Homo sapiens).
*A* 156
